Target: EI (EIA, EIA(G356S)) (Escherichia coli, UniProt P08839, G356S/H189A)
Construct: gene ptsI; full length 1-575; pET11 or pET15b with N-terminal His6 tag; E. coli BL21star(DE3); dimer with PEP
Test: isothermal titration calorimetry
Format: binding
Settings: read-out: K D (μS)
measured endpoint: Kd (µM)
The reply should contain only the number, in µM.

Query for EI (EIA, EIA(G356S)) (Escherichia coli, UniProt P08839, G356S/H189A): what Kd does the record show for C=C(OP(=O)(O)O)C(=O)O [PEP] ?
14

---

Molecular target: EIC (EIC(G356S)) (Escherichia coli, UniProt P08839, G356S)
Construct: pET11 or pET15b with N-terminal His6 tag; E. coli BL21star(DE3)
Test: isothermal titration calorimetry
Conditions: read-out: K D (μS)
measured endpoint: Kd
Provide the measurement as a number trailed by its unit.

Query for EIC (EIC(G356S)) (Escherichia coli, UniProt P08839, G356S): what Kd does the record show for C=C(OP(=O)(O)O)C(=O)O [PEP] ?
310 µM

Provenance of the data: paper PMC5537066
